Assay notes: NFAT Signaling Pathway (AID 444);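 note: carbachol stimulus at about its EC50 of 1 µM final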
Condition set: Jurkat NFAT-bla M1, carbachol, beta-lactamase ratio, 5 h; at 38 µM (top of the series) unless noted
Results filed as inconclusive are left out. Active and inactive are the calls of the source. Calls come from the whole dose curve; as a rule, active = well fitted curve in either direction with a large enough effect (not every such curve was filed as active); inconclusive = small, poorly fitted or top-dose-only effect, or another doubt; inactive = flat fitted curve, though single readings scatter.
Outcomes: active, inactive

- Compound: "CN1CCc2cccc(Cl)c2CC1"
  Label: "inactive"
- Compound: "CN(N=O)c1cc(O)ccc1O"
  Label: "inactive"
- Compound: "c1ccc2c(N3CCNCC3)cccc2c1"
  Label: "inactive"
- Compound: "CCN(CCCl)Cc1ccccc1Br"
  Label: "inactive"
- Compound: "C[N+]1(C)CCc2cc3c(cc2[C@H]1[C@@H]1OC(=O)c2c1ccc1c2OCO1)OCO3"
  Label: "inactive"
- Compound: "N#CC(C#N)=Cc1cc(O)c(O)c(O)c1"
  Label: "inactive"
- Compound: "CC(C)(C)c1cc(O)ccc1O"
  Label: "inactive"
- Compound: "CP(=O)(O)C1=CCNCC1"
  Label: "inactive"
- Compound: "Clc1cc(I)cc(Cl)c1NC1=NCCN1"
  Label: "inactive"
- Compound: "CCCN(CCC)[C@@H]1CCc2cccc(O)c2C1"
  Label: "inactive"
- Compound: "OCc1cnc[nH]1"
  Label: "inactive"
- Compound: "COc1ccc2[nH]c3c(c2c1)CCNC3"
  Label: "inactive"
- Compound: "NC(=O)c1cc(N2CC2)c([N+](=O)[O-])cc1[N+](=O)[O-]"
  Label: "inactive"
- Compound: "CCCN(CCC)CCc1ccc(O)c(O)c1"
  Label: "inactive"
- Compound: "CCS(=O)(=O)Nc1cccc(C(=C2CCCCC2)c2cnc[nH]2)c1"
  Label: "inactive"
- Compound: "c1ccc2cc(CC3=NCCN3)ccc2c1"
  Label: "inactive"
- Compound: "c1cc2c(c(NC3=NCCN3)c1)CCCC2"
  Label: "inactive"
- Compound: "O=S(=O)(O)c1cc(O)ccc1O"
  Label: "inactive"
- Compound: "c1ccc2c(c1)[I+]c1ccccc1-2"
  Label: "inactive"
- Compound: "CN1[C@@H]2CC[C@H]1CC(OC1c3ccccc3CCc3ccccc31)C2 (stereo not given in full)"
  Label: "active"
- Compound: "NC(=O)COc1c(F)cc(SCCNS(=O)(=O)c2ccccc2)cc1F"
  Label: "inactive"
- Compound: "NCCCP(=O)(O)O"
  Label: "inactive"
- Compound: "CCCn1c(=O)c2[nH]c(C3CCCC3)nc2n(CCCOC(=O)c2ccc(S(=O)(=O)F)cc2)c1=O"
  Label: "inactive"
- Compound: "O=[N+]([O-])c1ccc2nc(N3CCNCC3)ccc2c1"
  Label: "inactive"
- Compound: "CCC1(C)CC(=O)NC(=O)C1"
  Label: "inactive"
